- System: Hepatitis C virus subtype 1b
- procedure details: Inhibition of HCV J4 genotype 1b NS5Bdelta21 polymerase using homopolymeric RNA at 20 uM by SYBR Green assay
Label Satisfied when inhibition is at or above 90%; anything below gets Not satisfied.

Use these answered entries as a reference point.
smiles entry	category label
COc1cccc(Cn2cc(/C=C3\Oc4cc(O)cc(O)c4C3=O)c3ccccc32)c1	Satisfied
O=C1/C(=C/c2cn(CCc3ccccc3)c3ccccc23)Oc2cc(O)cc(O)c21	Satisfied
O=C1/C(=C/c2cn(Cc3cccc(O)c3)c3ccccc23)Oc2cc(O)cc(O)c21	Satisfied
O=C1/C(=C/c2ccc3ccccc3n2)Oc2cc(O)cc(O)c21	Not satisfied
CCCCn1cc(/C=C2\Oc3cc(O)cc(O)c3C2=O)c2cc(C)ccc21	Satisfied

Query block: Does the compound Cn1c(/C=C2\Oc3cc(O)cc(O)c3C2=O)cc2ccccc21 have recorded inhibition that is 90% or more?
Result block: Satisfied

Query block: // same read-out, input: O=C1/C(=C/c2cn(CC3CCCCC3)c3ccccc23)Oc2cc(O)cc(O)c21
Result block: Satisfied

====

- Tested on: Hepatitis C virus subtype 1b
- procedure details: Inhibition of HCV J4 genotype 1b NS5Bdelta21 polymerase using homopolymeric RNA at 20 uM by SYBR Green assay
result type: inhibition
Could you write the number and then its unit?

smiles entry	result
O=C1/C(=C/c2ccc3[nH]cnc3c2)Oc2cc(O)cc(O)c21	81%
CCCCn1cc(/C=C2\Oc3cc(O)cc(O)c3C2=O)c2cccc(C)c21	92.5%
O=C1/C(=C/c2ccc(-c3cccs3)cc2)Oc2cc(O)cc(O)c21	97%
CCCCOc1ccc(/C=C2\Oc3cc(O)cc(O)c3C2=O)cc1	81%
O=C1/C(=C/c2ccc(N3CCCCC3)cc2)Oc2cc(O)cc(O)c21	93%

Hello, I would appreciate it if you could give inhibition for each entry below.
1. O=C(O)CCCn1cc(/C=C2\Oc3cc(O)cc(O)c3C2=O)c2ccccc21
2. CCCCn1c(/C=C2\Oc3cc(O)cc(O)c3C2=O)cc2ccccc21
3. O=C1/C(=C/c2ccc3ccccc3c2)Oc2cc(O)cc(O)c21

Result block:
["70%", "98.4%", "95%"]

Dear reader, for each entry below, please note its inhibition.
1. O=C1/C(=C/c2cn(Cc3ccccc3)c3ccccc23)Oc2cc(O)cc(O)c21
2. CCCCn1cc(/C=C2\Oc3cc(O)cc(O)c3C2=O)c2cccc(OC)c21
3. O=C1/C(=C/c2cn(CCCc3ccccc3)c3ccccc23)Oc2cc(O)cc(O)c21
4. CC(C)=CCn1cc(/C=C2\Oc3cc(O)cc(O)c3C2=O)c2ccccc21

Result block:
1: 96.2%; 2: 93.1%; 3: 93%; 4: 94.7%

Please give inhibition, item by item, for the list that follows.
1. O=C1/C(=C/c2ccc(-c3ccccc3)cc2)Oc2cc(O)cc(O)c21
2. O=C1/C(=C/c2cnc[nH]2)Oc2cc(O)cc(O)c21
3. CCCCn1c(C)c(/C=C2\Oc3cc(O)cc(O)c3C2=O)c2ccccc21

Result block:
93%
39%
91.6%

====

- procedure details: Inhibition of HCV J4 genotype 1b NS5Bdelta21 polymerase using homopolymeric RNA by SYBR Green assay
- Design: species or system Hepatitis C virus subtype 1b
For each of the compounds below, state its IC50.
One number for each entry, in nM.

smiles entry	IC50, nM
O=C1/C(=C/c2ccc(C(F)(F)F)cc2)Oc2cc(O)cc(O)c21	5400
O=C1/C(=C/c2cn(CCCc3ccccc3)c3ccccc23)Oc2cc(O)cc(O)c21	2700
O=C1/C(=C/c2cn(Cc3cccc(Br)c3)c3ccccc23)Oc2cc(O)cc(O)c21	2400

Kindly consider the entry below.
Query block: Fill blank: measured IC50 of the compound CCCCn1cc(/C=C2\Oc3cc(O)cc(O)c3C2=O)c2cccc(O)c21 is ____.
Result block: 2300

====

- procedure details: Inhibition of HCV J4 genotype 1b NS5Bdelta21 polymerase using homopolymeric RNA by SYBR Green assay
- Set-up: species or system Hepatitis C virus subtype 1b
Mark criterion met for IC50 under 3 µM, criterion not met if at or over.

Some solved cases for reference:
smiles entry	category label
CN(C)c1ccc(/C=C2\Oc3cc(O)cc(O)c3C2=O)cc1	criterion not met
Cn1cc(/C=C2\Oc3cc(O)cc(O)c3C2=O)c2ccccc21	criterion not met
O=C1/C(=C/c2ccco2)Oc2cc(O)cc(O)c21	criterion not met
O=C1/C(=C/c2ccc3[nH]cnc3c2)Oc2cc(O)cc(O)c21	criterion not met
Cn1c(/C=C2\Oc3cc(O)cc(O)c3C2=O)cc2ccccc21	criterion not met

Query block: I wonder whether O=C1/C(=C/c2ccc(-c3ccccc3)cc2)Oc2cc(O)cc(O)c21 has IC50 below 3 µM. Can you tell?
Result block: criterion not met

Query block: Would you kindly repeat that for O=C1/C(=C/c2ccc(N3CCCCC3)cc2)Oc2cc(O)cc(O)c21 ?
Result block: criterion not met

Query block: Then what about the compound O=C1/C(=C/c2ccc(CO)o2)Oc2cc(O)cc(O)c21 ?
Result block: criterion not met

Query block: Similarly, Cn1cccc1/C=C1\Oc2cc(O)cc(O)c2C1=O ?
Result block: criterion not met

====

- Test system: Hepatitis C virus subtype 1b
- procedure details: Inhibition of HCV J4 genotype 1b NS5Bdelta21 polymerase using homopolymeric RNA at 20 uM by SYBR Green assay
result type: inhibition (%)
Answers are plain numbers, in %.

Look over these answered cases.
smiles entry	inhibition / %
CCCCOc1ccc(/C=C2\Oc3cc(O)cc(O)c3C2=O)c(OCCCC)c1	90
CN(C)c1ccc(/C=C2\Oc3cc(O)cc(O)c3C2=O)cc1	90

Give inhibition for each listed item.
1. Cn1cc(/C=C2\Oc3cc(O)cc(O)c3C2=O)c2ccccc21
2. CCCCn1cc(/C=C2\Oc3cc(O)cc(O)c3C2=O)c2cc(OC)ccc21
3. O=C1/C(=C/c2cn(Cc3cccc(Br)c3)c3ccccc23)Oc2cc(O)cc(O)c21
4. CCCCn1ccc2cc(/C=C3\Oc4cc(O)cc(O)c4C3=O)ccc21
5. O=C1/C(=C/c2ccc(CO)o2)Oc2cc(O)cc(O)c21
6. CCCCn1cc(/C=C2\Oc3cc(O)cc(O)c3C2=O)c2cccc(O)c21
7. Cn1cccc1/C=C1\Oc2cc(O)cc(O)c2C1=O

Result block:
90
93.8
96
94.3
33
98.9
55

Hi! Can you tell me inhibition for each of these compounds?
1. CCCCn1cc(/C=C2\Oc3cc(O)cc(O)c3C2=O)c2cc(O)ccc21
2. O=C1/C(=C/c2ccco2)Oc2cc(O)cc(O)c21

Result block:
[53.5, 27]

Go through the items and report each one's inhibition.
1. O=C1/C(=C/c2cccc3ccccc23)Oc2cc(O)cc(O)c21
2. Cc1cccc(Cn2cc(/C=C3\Oc4cc(O)cc(O)c4C3=O)c3ccccc32)c1

Result block:
45
95.6

Field: inhibition. Fill in for each record below.
1. CC(C)Cn1cc(/C=C2\Oc3cc(O)cc(O)c3C2=O)c2ccccc21
2. O=C1/C(=C/c2ccc(C(F)(F)F)cc2)Oc2cc(O)cc(O)c21

Result block:
1: 80.7; 2: 96

====

- procedure details: Inhibition of HCV J4 genotype 1b NS5Bdelta21 polymerase using homopolymeric RNA by SYBR Green assay
- Design: species or system Hepatitis C virus subtype 1b
result type: IC50 (µM)
Answers are plain numbers, in µM.

smiles entry	IC50 (µM)
CC(C)=CCn1cc(/C=C2\Oc3cc(O)cc(O)c3C2=O)c2ccccc21	3
CCCCn1c(/C=C2\Oc3cc(O)cc(O)c3C2=O)cc2ccccc21	3
COc1cccc(Cn2cc(/C=C3\Oc4cc(O)cc(O)c4C3=O)c3ccccc32)c1	2.7
O=C1/C(=C/c2cn(Cc3cccc(O)c3)c3ccccc23)Oc2cc(O)cc(O)c21	2.4
O=C1/C(=C/c2cn(Cc3ccccc3)c3ccccc23)Oc2cc(O)cc(O)c21	2.6
O=C1/C(=C/c2ccc3ccccc3c2)Oc2cc(O)cc(O)c21	3.4
CCCCOc1ccc(/C=C2\Oc3cc(O)cc(O)c3C2=O)c(OCCCC)c1	4
CC(C)Cn1cc(/C=C2\Oc3cc(O)cc(O)c3C2=O)c2ccccc21	8

# return IC50 for each item in the list
1. O=C1/C(=C/c2cn(CCc3ccccc3)c3ccccc23)Oc2cc(O)cc(O)c21
2. O=C1/C(=C/c2cn(CC3CCCCC3)c3ccccc23)Oc2cc(O)cc(O)c21
3. O=C1/C(=C/c2ccc(-c3cccs3)cc2)Oc2cc(O)cc(O)c21
4. Cc1cccc(Cn2cc(/C=C3\Oc4cc(O)cc(O)c4C3=O)c3ccccc32)c1

Result block:
3.2
3.3
4
2.6
